Tgt: p300 (Homo sapiens)
Construct: host or cells: A549 P300 HiBit cells
Sequence (Q09472 whole entry): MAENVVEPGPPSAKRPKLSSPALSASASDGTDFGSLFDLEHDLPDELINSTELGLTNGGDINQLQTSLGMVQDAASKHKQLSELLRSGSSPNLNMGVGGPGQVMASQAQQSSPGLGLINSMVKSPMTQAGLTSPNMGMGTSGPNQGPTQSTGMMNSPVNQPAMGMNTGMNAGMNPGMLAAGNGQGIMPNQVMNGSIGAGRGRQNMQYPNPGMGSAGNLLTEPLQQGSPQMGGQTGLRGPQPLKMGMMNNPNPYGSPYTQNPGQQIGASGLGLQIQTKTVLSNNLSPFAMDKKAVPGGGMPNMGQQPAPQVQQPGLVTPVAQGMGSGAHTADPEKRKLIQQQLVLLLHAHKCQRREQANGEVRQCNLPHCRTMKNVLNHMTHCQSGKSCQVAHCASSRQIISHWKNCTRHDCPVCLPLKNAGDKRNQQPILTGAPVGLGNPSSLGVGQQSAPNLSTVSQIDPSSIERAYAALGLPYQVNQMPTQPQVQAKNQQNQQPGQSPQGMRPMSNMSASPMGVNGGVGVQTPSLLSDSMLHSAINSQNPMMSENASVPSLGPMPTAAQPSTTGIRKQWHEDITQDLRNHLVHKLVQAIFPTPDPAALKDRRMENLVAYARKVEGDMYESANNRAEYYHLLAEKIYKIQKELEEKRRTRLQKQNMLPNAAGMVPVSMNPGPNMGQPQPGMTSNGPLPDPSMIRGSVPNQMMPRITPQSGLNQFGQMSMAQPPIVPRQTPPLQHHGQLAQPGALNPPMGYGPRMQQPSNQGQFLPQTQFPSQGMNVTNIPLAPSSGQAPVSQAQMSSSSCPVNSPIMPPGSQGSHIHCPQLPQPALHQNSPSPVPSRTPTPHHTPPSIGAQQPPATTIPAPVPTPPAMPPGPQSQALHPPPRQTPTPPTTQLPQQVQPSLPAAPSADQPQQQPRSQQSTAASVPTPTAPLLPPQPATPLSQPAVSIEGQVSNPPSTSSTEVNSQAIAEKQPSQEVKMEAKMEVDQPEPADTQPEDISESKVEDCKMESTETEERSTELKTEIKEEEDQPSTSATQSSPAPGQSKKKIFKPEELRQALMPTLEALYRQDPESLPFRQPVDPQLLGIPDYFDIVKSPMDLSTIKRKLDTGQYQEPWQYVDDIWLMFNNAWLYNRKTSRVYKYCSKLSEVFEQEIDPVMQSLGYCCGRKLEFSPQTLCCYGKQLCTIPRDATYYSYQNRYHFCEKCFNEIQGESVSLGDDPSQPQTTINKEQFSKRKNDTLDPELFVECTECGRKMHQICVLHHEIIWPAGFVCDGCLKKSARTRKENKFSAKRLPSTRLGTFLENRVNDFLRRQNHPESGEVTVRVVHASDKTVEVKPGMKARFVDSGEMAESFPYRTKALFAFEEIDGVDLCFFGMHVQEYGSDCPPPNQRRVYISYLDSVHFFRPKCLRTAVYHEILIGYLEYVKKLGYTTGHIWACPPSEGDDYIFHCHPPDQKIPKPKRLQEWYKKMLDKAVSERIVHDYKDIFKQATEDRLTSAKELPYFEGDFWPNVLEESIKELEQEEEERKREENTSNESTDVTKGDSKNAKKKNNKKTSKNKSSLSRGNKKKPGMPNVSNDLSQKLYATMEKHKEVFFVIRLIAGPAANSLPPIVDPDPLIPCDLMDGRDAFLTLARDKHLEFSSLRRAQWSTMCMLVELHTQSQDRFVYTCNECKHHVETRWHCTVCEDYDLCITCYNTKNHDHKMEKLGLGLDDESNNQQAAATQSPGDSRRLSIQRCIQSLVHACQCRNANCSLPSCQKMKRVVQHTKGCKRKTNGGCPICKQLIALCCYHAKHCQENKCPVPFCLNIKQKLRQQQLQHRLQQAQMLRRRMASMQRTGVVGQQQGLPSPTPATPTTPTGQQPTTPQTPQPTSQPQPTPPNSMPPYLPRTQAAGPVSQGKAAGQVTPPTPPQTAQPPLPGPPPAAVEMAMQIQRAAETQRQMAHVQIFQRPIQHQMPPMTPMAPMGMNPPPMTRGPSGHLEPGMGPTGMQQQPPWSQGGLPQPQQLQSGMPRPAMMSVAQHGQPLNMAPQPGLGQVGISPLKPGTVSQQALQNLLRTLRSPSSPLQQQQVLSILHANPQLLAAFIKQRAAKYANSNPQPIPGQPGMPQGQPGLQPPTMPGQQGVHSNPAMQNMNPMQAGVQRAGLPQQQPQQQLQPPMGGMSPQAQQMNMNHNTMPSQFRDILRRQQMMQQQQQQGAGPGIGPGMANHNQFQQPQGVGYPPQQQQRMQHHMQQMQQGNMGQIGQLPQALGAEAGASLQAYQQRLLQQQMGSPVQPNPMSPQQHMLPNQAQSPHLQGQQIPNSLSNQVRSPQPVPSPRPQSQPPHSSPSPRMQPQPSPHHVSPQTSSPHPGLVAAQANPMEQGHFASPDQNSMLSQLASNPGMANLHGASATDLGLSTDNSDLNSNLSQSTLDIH
Method description: P300 degradation, HiBit technology in A549 P300 HiBit cells (2 h)
Assay type: cell-based
Measurement conditions: A549, A549 P300 HiBit cells, 2 hrs post treatment
Endpoint label: Dmax

# example entries with known answers
>  <Compound>
CC(C)c1cc(-c2cccc3cc(-c4ccc(C(=O)NCC#Cc5ccc6ncnc(C7CCC(=O)NC7=O)c6c5)nc4)ncc23)cc2c1n(C)c(=O)n2C (stereo not drawn)

>  <Tgt>
p300 (Homo sapiens)

>  <Endpoint label>
Dmax

>  <Assay value>
60 to 79%

$$$$
>  <Compound>
Cc1cc2c(N3CCCc4cc(-c5ccc(C(=O)NCC#Cc6ccc7occ(C8CCC(=O)NC8=O)c7c6)nc5)c(F)cc43)cc(C3CCOCC3)cc2n(C)c1=O (stereo not drawn)

>  <Tgt>
p300 (Homo sapiens)

>  <Endpoint label>
Dmax

>  <Assay value>
> 80%

$$$$
>  <Compound>
Cc1cc2c(N3CCCc4nc(-c5ccc(C(=O)NCC#Cc6cc7c(C8CCC(=O)NC8=O)nccc7o6)nc5)ncc43)cc(C(C)C)cc2n(C)c1=O (stereo not drawn)

>  <Tgt>
p300 (Homo sapiens)

>  <Endpoint label>
Dmax

>  <Assay value>
> 80%

$$$$
>  <Compound>
Cc1cc2c(N3CCCc4nc(-c5cnc(C(=O)NCC#Cc6cc7c(C8CCC(=O)NC8=O)cccc7o6)cn5)ncc43)cc(C3CCOCC3)cc2n(C)c1=O (stereo not drawn)

>  <Tgt>
p300 (Homo sapiens)

>  <Endpoint label>
Dmax

>  <Assay value>
60 to 79%

$$$$
>  <Compound>
CC(C)c1cc(-c2cccc3cc(-c4ccc(C(=O)NCC#Cc5ccc6[nH]nc(C7CCC(=O)NC7=O)c6c5)nc4)ncc23)cc2c1n(C)c(=O)n2C (stereo not drawn)

>  <Tgt>
p300 (Homo sapiens)

>  <Endpoint label>
Dmax

>  <Assay value>
> 80%

$$$$

# context switch: different compound, same Dmax
Quick one: Dmax for Cc1cc2c(N3CCCc4nc(-c5ccc(C(=O)NCC#Cc6ccc7occ(C8CCC(=O)NC8=O)c7c6)nc5)ncc43)cc(C3CCOCC3)nc2n(C)c1=O (stereo not drawn) ? > 80%

Each recorded value in this set is attributed to patent US20250114345A1.
